So I've got a bunch of compounds here, and I need their AUC values.
Molecular target: Protein cereblon/Histone acetyltransferase p300 (Homo sapiens) (UniProt Q09472+Q96SW2)
Sequence (Q09472 2-2414 limits assumed): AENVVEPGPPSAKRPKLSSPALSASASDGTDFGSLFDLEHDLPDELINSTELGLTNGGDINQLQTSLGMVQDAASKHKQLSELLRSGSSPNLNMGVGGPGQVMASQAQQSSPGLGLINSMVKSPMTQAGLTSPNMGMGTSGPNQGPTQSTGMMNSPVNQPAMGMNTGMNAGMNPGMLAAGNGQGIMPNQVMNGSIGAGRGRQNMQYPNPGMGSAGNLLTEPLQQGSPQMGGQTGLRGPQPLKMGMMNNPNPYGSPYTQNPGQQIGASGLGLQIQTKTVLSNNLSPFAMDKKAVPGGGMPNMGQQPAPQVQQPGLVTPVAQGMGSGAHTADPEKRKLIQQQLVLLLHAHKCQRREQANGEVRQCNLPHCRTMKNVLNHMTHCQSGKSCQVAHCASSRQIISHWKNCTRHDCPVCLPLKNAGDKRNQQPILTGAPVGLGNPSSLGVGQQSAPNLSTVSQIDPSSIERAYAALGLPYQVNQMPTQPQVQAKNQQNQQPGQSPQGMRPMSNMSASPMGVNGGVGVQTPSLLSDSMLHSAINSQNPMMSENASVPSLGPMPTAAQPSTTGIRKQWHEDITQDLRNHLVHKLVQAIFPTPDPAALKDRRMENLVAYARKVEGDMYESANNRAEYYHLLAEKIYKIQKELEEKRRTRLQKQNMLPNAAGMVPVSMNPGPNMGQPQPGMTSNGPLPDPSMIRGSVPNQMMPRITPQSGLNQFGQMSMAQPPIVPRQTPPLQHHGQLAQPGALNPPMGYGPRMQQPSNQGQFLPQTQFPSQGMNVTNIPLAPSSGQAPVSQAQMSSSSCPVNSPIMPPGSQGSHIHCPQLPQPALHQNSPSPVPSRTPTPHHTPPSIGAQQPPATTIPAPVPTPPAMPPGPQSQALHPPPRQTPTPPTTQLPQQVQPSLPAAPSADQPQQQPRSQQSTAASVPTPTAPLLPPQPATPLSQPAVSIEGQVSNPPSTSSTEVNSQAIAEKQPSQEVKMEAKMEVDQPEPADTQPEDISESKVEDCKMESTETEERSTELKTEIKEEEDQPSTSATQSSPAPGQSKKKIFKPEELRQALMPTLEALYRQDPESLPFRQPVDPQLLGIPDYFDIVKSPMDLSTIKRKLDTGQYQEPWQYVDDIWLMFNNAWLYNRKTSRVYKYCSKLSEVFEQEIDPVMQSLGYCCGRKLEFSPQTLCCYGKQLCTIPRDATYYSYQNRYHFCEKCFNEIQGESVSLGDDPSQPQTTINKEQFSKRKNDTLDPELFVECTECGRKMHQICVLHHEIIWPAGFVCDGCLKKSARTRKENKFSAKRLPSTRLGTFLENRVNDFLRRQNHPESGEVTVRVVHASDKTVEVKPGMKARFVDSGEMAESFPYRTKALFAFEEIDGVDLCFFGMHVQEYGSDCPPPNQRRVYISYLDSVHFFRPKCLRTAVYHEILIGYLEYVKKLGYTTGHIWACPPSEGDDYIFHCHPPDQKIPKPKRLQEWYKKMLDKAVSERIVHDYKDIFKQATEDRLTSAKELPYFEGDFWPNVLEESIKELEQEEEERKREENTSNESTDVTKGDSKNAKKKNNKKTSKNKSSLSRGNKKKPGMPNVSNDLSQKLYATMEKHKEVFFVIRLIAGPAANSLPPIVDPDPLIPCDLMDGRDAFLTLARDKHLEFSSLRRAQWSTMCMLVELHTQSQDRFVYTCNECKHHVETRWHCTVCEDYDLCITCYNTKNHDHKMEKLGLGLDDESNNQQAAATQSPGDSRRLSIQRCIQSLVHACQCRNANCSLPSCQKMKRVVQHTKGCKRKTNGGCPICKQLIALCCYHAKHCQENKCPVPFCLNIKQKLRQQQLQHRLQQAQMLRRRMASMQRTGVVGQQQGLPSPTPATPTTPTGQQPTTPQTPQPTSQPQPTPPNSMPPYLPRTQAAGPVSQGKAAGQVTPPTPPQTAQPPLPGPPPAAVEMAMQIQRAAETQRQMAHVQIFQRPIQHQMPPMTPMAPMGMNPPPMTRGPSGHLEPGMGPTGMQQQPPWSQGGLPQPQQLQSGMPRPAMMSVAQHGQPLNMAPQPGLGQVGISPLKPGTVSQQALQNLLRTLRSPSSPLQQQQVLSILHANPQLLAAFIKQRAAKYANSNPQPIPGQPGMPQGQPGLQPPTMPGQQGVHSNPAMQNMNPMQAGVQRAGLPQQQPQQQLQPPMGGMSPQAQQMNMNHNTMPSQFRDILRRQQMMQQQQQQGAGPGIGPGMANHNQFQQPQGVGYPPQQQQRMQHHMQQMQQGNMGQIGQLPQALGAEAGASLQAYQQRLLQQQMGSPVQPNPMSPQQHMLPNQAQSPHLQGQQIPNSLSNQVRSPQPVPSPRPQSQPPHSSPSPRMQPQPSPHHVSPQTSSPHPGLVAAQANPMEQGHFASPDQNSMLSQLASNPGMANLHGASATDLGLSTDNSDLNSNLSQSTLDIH
Sequence (Q96SW2 whole entry partner): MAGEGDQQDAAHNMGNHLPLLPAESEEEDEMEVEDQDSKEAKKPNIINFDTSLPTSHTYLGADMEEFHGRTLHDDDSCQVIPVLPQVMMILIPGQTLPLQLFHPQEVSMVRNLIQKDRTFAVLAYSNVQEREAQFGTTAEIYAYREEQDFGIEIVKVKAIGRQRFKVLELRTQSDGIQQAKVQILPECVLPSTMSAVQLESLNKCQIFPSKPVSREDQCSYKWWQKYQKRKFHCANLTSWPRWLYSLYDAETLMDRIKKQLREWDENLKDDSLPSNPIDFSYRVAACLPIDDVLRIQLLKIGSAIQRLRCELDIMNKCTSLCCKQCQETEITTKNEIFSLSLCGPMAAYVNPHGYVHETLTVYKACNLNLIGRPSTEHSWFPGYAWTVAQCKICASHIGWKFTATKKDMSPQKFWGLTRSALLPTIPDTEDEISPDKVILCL
Assay: PROTAC activity at CRBN/HiBiT-tagged p300 in human HAP1 cells assessed as total cumulative degradation by measuring AUC at 100 nM measured over 24 hrs by luminescence based analysis; also: unit not given here
Format: cell-based

Query: Need AUC, item CNC(=O)N1CCc2c(c(N3CCCc4cc(-c5cnn(C)c5)c(C(F)F)cc43)nn2C2CCN(C(=O)CCOCCOCCOCCOCCNc3ccc4c(c3)C(=O)N(C3CCC(=O)NC3=O)C4=O)CC2)C1 (stereo not given)
Result: 3.7

Query: Same again, this time with CNC(=O)N1CCc2c(c(N3CCN(C(=O)NCCOCCOCCOCCOCCNc4ccc5c(c4)C(=O)N(C4CCC(=O)NC4=O)C5=O)c4cc(-c5cnn(C)c5)c(C(F)(F)F)cc43)nn2C2CCOCC2)C1 (stereo not given)
Result: 25.5

Query: Same thing, different compound: CNC(=O)N1CCc2c(c(N3CCCc4cc(-c5cnn(C)c5)c(C(F)(F)F)cc43)nn2C2CCN(C(=O)CCOCCOCCOCCOCCNc3ccc4c(c3)C(=O)N(C3CCC(=O)NC3=O)C4=O)CC2)C1 (stereo not given)
Result: 3.9

Query: Same for CNC(=O)N1CCc2c(c(N3CCCc4cc(-c5cnn(CC(=O)NCCOCCOCCOCCOCCNc6ccc7c(c6)C(=O)N(C6CCC(=O)NC6=O)C7=O)c5)c(C(F)F)cc43)nn2C2CCOCC2)C1 (stereo not given)
Result: 16.8

Query: Field entry: CNC(=O)N1CCc2c(c(N3CCCc4cc(-c5cnn(CC(=O)NCCOCCNc6ccc7c(c6)C(=O)N(C6CCC(=O)NC6=O)C7=O)c5)c(C(F)F)cc43)nn2C2CCOCC2)C1 (stereo not given)
Result: 10.4

Query: Proceed to CNC(=O)N1CCc2c(c(N3CCN(C(=O)NCCOCCOCCOCCOCCOCCOCCNc4ccc5c(c4)C(=O)N(C4CCC(=O)NC4=O)C5=O)c4cc(-c5cnn(C)c5)c(C(F)(F)F)cc43)nn2C2CCOCC2)C1 (stereo not given)
Result: 24.2

Query: Further, for CNC(=O)N1CCc2c(c(N3CCCc4cc(-c5cnn(C)c5)c(C(F)F)cc43)nn2C2CCN(C(=O)CCOCCNc3ccc4c(c3)C(=O)N(C3CCC(=O)NC3=O)C4=O)CC2)C1 (stereo not given) ?
Result: 9.4

Query: Then CNC(=O)N1CCc2c(c(N3CCN(C(=O)NCCOCCNc4ccc5c(c4)C(=O)N(C4CCC(=O)NC4=O)C5=O)c4cc(-c5cnn(C)c5)c(C(F)(F)F)cc43)nn2C2CCOCC2)C1 (stereo not given) ?
Result: 26.2

Query: Further, for CNC(=O)N1CCc2c(c(N3CCCc4cc(-c5cnn(CC(=O)NCCOCCOCCOCCOCCOCCOCCNc6ccc7c(c6)C(=O)N(C6CCC(=O)NC6=O)C7=O)c5)c(C(F)F)cc43)nn2C2CCOCC2)C1 (stereo not given) ?
Result: 22.4

Query: How about this compound: CNC(=O)N1CCc2c(c(N3CCCc4cc(-c5cnn(C)c5)c(C(F)F)cc43)nn2C2CCN(C(=O)CCOCCOCCOCCOCCOCCOCCNc3ccc4c(c3)C(=O)N(C3CCC(=O)NC3=O)C4=O)CC2)C1 (stereo not given)
Result: 5.2
